Quick reference for kon among some binders
Target: VEGF (R&D systems, Minneapolis, Minn.) (UniProt P15692-4 27-191, limits assumed)
Sequence (P15692 other isoform, or with tags, fused parts or gaps limits assumed): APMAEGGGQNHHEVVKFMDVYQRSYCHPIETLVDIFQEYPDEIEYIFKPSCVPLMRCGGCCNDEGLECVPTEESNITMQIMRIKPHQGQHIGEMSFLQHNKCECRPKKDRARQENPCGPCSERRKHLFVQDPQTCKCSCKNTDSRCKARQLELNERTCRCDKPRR
Experiment: BIAcore SPR
Experimental: RL was kept low to minimize avidity due to the dimeric nature of VEGF. No capture of the antibody was made on the reference surface to serve as a negative control. […] All the binding kinetics data were analyzed at least three separate determinations.

[
  {
    "binder": "89 (antibody, human IgG1, V domains shown) VH: EVQLVESGGGLVQPGGSLRLSCAASGYTFTFYGMNWVRQAPGKGLEWVGWINTYTGEPTYAADFKRRFTFSLDTSKSTAYLQMNSLRAEDTAVYYCAKYPPYDGSSHWYFDVWGQGTLVTVSS VL: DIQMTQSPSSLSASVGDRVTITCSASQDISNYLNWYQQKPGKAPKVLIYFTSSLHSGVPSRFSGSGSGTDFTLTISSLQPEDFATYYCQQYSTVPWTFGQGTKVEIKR",
    "kon": "904000 M⁻¹ s⁻¹"
  },
  {
    "binder": "84 (antibody, human IgG1, V domains shown) VH: EVQLVESGGGLVQPGGSLRLSCAASGYTFTFYGMNWVRQAPGKGLEWVGWINTYTGEPTYAADFKRRFTFSLDTSKSTAYLQMNSLRAEDTAVYYCAKYPPYEGSSHWYFDVWGQGTLVTVSS VL: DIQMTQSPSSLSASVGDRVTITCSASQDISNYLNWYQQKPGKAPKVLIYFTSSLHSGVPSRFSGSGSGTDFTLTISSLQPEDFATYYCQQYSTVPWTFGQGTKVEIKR",
    "kon": "1.6e+06 M⁻¹ s⁻¹"
  },
  {
    "binder": "87 (antibody, human IgG1, V domains shown) VH: EVQLVESGGGLVQPGGSLRLSCAASGYTFTFYGMNWVRQAPGKGLEWVGWINTYTGEPTYAADFKRRFTFSLDTSKSTAYLQMNSLRAEDTAVYYCAKYPEYDGGSHWYFDVWGQGTLVTVSS VL: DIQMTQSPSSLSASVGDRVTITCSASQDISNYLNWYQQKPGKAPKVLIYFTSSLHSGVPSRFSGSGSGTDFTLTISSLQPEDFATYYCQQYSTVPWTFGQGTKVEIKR",
    "kon": "824000 M⁻¹ s⁻¹"
  }
]
